# Test system: Capan-1 (pancreatic adenocarcinoma) cells
# ASSAY OVERVIEW: Cytostatic activity, Capan-1
# Format: cell-based
# CONDITION: concentration causing 50% decrease in cell proliferation
QUANTITY KIND: IC50

Recorded result, COC(=O)[C@@H]1C[C@H](Cn2cc(F)c(=O)[nH]c2=O)N(C)O1 (relative stereo) [cis-14c] , IC50: > 100 µM

Recorded result, COC(=O)[C@H]1C[C@H](Cn2cc(F)c(=O)[nH]c2=O)N(C)O1 (relative stereo) [trans-14c] , IC50: 49 µM

Recorded result, COC(=O)[C@H]1C[C@H](Cn2cc(Br)c(=O)[nH]c2=O)N(C)O1 (relative stereo) [trans-14d] , IC50: 67.8 µM
